Data origin: patent US20240360228A1

# reported % Blocking; entries follow
- ASSAY_TARGET: T1, human CCR8 (human, UniProt P51685 1-355)
- T1 construct: Native CCR8 on human PBMC (CCR8+ CD3+ or CCR8+ CD4+ lymphocytes); also called chemokine (C-C motif) receptor 8
- T1 sequence (P51685 whole entry): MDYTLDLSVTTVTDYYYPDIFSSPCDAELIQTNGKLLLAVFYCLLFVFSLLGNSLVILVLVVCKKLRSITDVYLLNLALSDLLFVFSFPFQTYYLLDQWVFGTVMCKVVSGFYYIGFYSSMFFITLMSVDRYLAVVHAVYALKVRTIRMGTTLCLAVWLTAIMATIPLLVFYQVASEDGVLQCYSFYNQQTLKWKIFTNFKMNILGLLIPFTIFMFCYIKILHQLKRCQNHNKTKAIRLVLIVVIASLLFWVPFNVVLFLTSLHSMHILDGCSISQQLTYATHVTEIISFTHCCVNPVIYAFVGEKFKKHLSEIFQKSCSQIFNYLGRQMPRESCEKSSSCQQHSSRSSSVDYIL
- PROCEDURE_SUMMARY: flow blocking, PBMC CCR8+CD4+; competitor PE-AB14

AB1 (antibody, V domains shown, Hybridoma monoclonal (mouse or rat); Same VH/VL entries as AB2; also called antibody 1; clone 1) VH: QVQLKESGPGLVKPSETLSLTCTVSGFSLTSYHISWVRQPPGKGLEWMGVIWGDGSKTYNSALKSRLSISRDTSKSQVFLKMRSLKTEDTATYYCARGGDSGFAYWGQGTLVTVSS VL: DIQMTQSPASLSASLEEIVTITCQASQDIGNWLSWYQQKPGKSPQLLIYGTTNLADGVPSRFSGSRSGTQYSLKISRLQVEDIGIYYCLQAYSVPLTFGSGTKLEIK	1.54%

Okay, now this binder:
Need % Blocking, item AB11 (antibody, V domains shown, Hybridoma monoclonal; also called antibody 11; clone 11) VH: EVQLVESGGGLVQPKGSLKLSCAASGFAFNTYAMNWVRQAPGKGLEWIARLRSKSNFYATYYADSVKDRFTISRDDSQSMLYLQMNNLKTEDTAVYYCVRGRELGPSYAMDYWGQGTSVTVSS VL: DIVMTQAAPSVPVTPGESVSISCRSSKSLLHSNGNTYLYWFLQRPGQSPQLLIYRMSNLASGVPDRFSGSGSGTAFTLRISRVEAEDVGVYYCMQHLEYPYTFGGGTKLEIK
99.2%
